Tested on: L1210 leukemia ip in BDF1 mice, survival T/C
Test: NCI In Vivo Anticancer Drug Screen. Data for tumor model L1210 Leukemia (intraperitoneal) in B6D2F1 (BDF1) mice
Settings: endpoint: mean survival time; dose: 200.0 mg/kg/injection; schedule: Q01DX001 (ip); vehicle: Klucel (hydroxypropylcellulose) (HPC); higher = longer survival
Protocol: The antitumor activity of compounds was measured in mice bearing transplantable tumors. Survival or tumor size were measured and the results are expressed as the measurement made in the treated group (T) divided by the measurement made in the vehicle treated control group (C). The tumor model used in this assay is L1210 Leukemia (intraperitoneal) in B6D2F1 (BDF1) mice
Toxic doses and inconclusive results are not listed.
metric-name: T/C

Ask: Notebook: pull reported T/C for L1210 leukemia ip in BDF1 mice, survival T/C, entry O=C(COc1ccccc1Cl)Nc1cccnc1
Reply: 103 % of control

Ask: Notebook: pull reported T/C for L1210 leukemia ip in BDF1 mice, survival T/C, entry O=C1OC(=O)C2C(c3ccccc3)C=C(Cl)C(CCCl)C12 (configuration not stated)
Reply: 97 % of control

Ask: Notebook: pull reported T/C for L1210 leukemia ip in BDF1 mice, survival T/C, entry O=C(c1ccccc1)C(C(NC1CCCCC1)c1ccccc1)N1CCCCC1 (configuration not stated)
Reply: 92 % of control

Ask: Notebook: pull reported T/C for L1210 leukemia ip in BDF1 mice, survival T/C, entry Cc1cc(NC(=O)NC/C=C/Br)c2ccccc2n1
Reply: 108 % of control

Ask: Notebook: pull reported T/C for L1210 leukemia ip in BDF1 mice, survival T/C, entry c1ccc(C(NC2CC3CCC2C3)c2ccccc2)cc1 (configuration not stated)
Reply: 95 % of control

Ask: Notebook: pull reported T/C for L1210 leukemia ip in BDF1 mice, survival T/C, entry CCOC(=O)/C=C/c1nc(N)[nH]c(=O)c1CCCCc1ccccc1
Reply: 111 % of control

Ask: Notebook: pull reported T/C for L1210 leukemia ip in BDF1 mice, survival T/C, entry O=c1cc(NCc2cccc3ccc(Cl)cc23)[nH]c(=O)[nH]1
Reply: 87 % of control

Ask: Notebook: pull reported T/C for L1210 leukemia ip in BDF1 mice, survival T/C, entry CCSC(=O)N1C=Cc2ccccc2C1C#N (configuration not stated)
Reply: 90 % of control

Ask: Notebook: pull reported T/C for L1210 leukemia ip in BDF1 mice, survival T/C, entry O=C(Nc1ccc(F)cc1)Nc1nccs1
Reply: 96 % of control

Ask: Notebook: pull reported T/C for L1210 leukemia ip in BDF1 mice, survival T/C, entry CC(=O)NCCOc1ccc([N+](=O)[O-])cc1
Reply: 102 % of control

Ask: Notebook: pull reported T/C for L1210 leukemia ip in BDF1 mice, survival T/C, entry c1ccc([C@H]2O[C@@H]2c2ccccc2)cc1
Reply: 101 % of control

Ask: Notebook: pull reported T/C for L1210 leukemia ip in BDF1 mice, survival T/C, entry ClCc1cc(OCc2ccccc2)ccc1OCc1ccccc1
Reply: 94 % of control

---

Tested on: L1210 leukemia ip in BDF1 mice, survival T/C
Assay: NCI In Vivo Anticancer Drug Screen. Data for tumor model L1210 Leukemia (intraperitoneal) in B6D2F1 (BDF1) mice
Conditions: endpoint: mean survival time; dose: 100.0 mg/kg/injection; schedule: Q04DX003 (ip); vehicle: saline; higher = longer survival
Toxic doses and inconclusive results are not listed.
metric-name: T/C

Ask: Report T/C for O=C(c1ccccc1)C(Cl)Cl please.
Reply: 106 % of control

Ask: Report T/C for O=C(O)C(Cc1ccc(O)cc1)c1ccccc1 (stereo not drawn) please.
Reply: 98 % of control

Ask: Report T/C for O=C1CC2=C(CC(O)=CC=C2)C(=O)O1 please.
Reply: 104 % of control

Ask: Report T/C for CCCn1nnc2ccccc2c1=Nc1ccccc1 please.
Reply: 99 % of control

Ask: Report T/C for CC1(C)N=C(N)N=C(N)N1NC(=O)c1cccc(Cl)c1 please.
Reply: 101 % of control

Ask: Report T/C for CC(=O)Nc1ccc(Cl)cc1C(=O)c1ccc[nH]1 please.
Reply: 106 % of control

Ask: Report T/C for CC1(COCCOCC2(C)CO2)CO1 (stereo not drawn) please.
Reply: 97 % of control

Ask: Report T/C for COc1ccc(OC)c(/C=C2\N=C(c3ccccc3)OC2=O)c1 please.
Reply: 100 % of control

Ask: Report T/C for O=S(=O)(CCCCl)N1CCOCC1 please.
Reply: 97 % of control

Ask: Report T/C for N#CCCCN1CCOCC1 please.
Reply: 96 % of control

Ask: Report T/C for CC1(C)NC(=O)N(CN2CCN(CN3C(=O)NC(C)(C)C3=O)CC2)C1=O please.
Reply: 108 % of control

Ask: Report T/C for CS(=O)(=O)OCCC(=O)NCCCCNC(=O)CCOS(C)(=O)=O please.
Reply: 115 % of control

Ask: Report T/C for CN(C)c1ccc(S(=O)(=O)Cl)cc1[N+](=O)[O-] please.
Reply: 104 % of control
